- experiment summary: Selectivity index, ratio of IC50 for human HepG2 cells to IC50 for CQ, MFQ-resistant Plasmodium falciparum TM91C235 clone Southeast asian isolate
- Format: toxicity, cell-based
- condition parameters: read-out: Ratio IC50
Think of 80 as a floor: if selectivity ratio stands on it or above, it is label 1; beneath it, label 0.

{"line notation": "CC(=O)O[C@H]1C[C@H]2[C@@H]([C@H](OC(C)=O)C[C@@H]3C[C@H](N)CC[C@@]32C)[C@@H]2CC[C@H]([C@H](C)CCCN(CCC[C@@H](C)[C@H]3CC[C@H]4[C@@H]5[C@H](OC(C)=O)C[C@@H]6C[C@H](N)CC[C@]6(C)[C@H]5C[C@H](OC(C)=O)[C@]34C)CCNc3ccnc4cc(Cl)ccc34)[C@@]12C", "answer label": "label 0"}
{"line notation": "CC(=O)O[C@@H]1CC[C@@]2(C)[C@@H](C1)C[C@@H](OC(C)=O)[C@@H]1[C@@H]2C[C@H](OC(C)=O)[C@]2(C)[C@@H]([C@H](C)CCCNCCCNc3ccnc4cc(Cl)ccc34)CC[C@@H]12", "answer label": "label 0"}
{"line notation": "CC(=O)O[C@H]1C[C@H]2[C@@H]([C@H](OC(C)=O)C[C@@H]3C[C@H](N)CC[C@@]32C)[C@@H]2CC[C@H]([C@H](C)CCCNCCNc3ccnc4cc(Cl)ccc34)[C@@]12C", "answer label": "label 0"}
{"line notation": "CC(=O)O[C@H]1C[C@H]2[C@@H]([C@H](OC(C)=O)C[C@@H]3C[C@H](N(C)C)CC[C@@]32C)[C@@H]2CC[C@H]([C@H](C)CCCN(C)CCNc3ccnc4cc(Cl)ccc34)[C@@]12C", "answer label": "label 1"}
{"line notation": "CC(=O)O[C@H]1C[C@H]2[C@@H]([C@H](OC(C)=O)C[C@@H]3C[C@H](O)CC[C@@]32C)[C@@H]2CC[C@H]([C@H](C)CCCNCCCNc3ccnc4cc(Cl)ccc34)[C@@]12C", "answer label": "label 1"}

Now examine the next entry.
query: I'd appreciate it if you could say whether CC(=O)O[C@H]1C[C@H]2[C@@H]([C@H](OC(C)=O)C[C@@H]3C[C@H](NC(=O)OC(C)(C)C)CC[C@@]32C)[C@@H]2CC[C@H]([C@H](C)CCCN(CCCNc3ccnc4cc(Cl)ccc34)CCC[C@@H](C)[C@H]3CC[C@H]4[C@@H]5[C@H](OC(C)=O)C[C@@H]6C[C@H](NC(=O)OC(C)(C)C)CC[C@]6(C)[C@H]5C[C@H](OC(C)=O)[C@]34C)[C@@]12C has selectivity ratio at least equal to 80.
result: label 1

====

- Tested on: HepG2
- experiment summary: Cytotoxicity against human HepG2 cells assessed as cell viability after 48 hrs by MTT assay
- Format: cell-based
- condition parameters: HepG2, 48 h
value kind: log10 IC50 (log10 of the value in µM)
Lab note - IC50 converted to log10 from values in µM.

{"line notation": "CC(=O)O[C@@H]1CC[C@@]2(C)[C@@H](C1)C[C@@H](OC(C)=O)[C@@H]1[C@@H]2C[C@H](OC(C)=O)[C@]2(C)[C@@H]([C@H](C)CCCN(C)CCCNc3ccnc4cc(Cl)ccc34)CC[C@@H]12", "log10 IC50": 0.20}

query: Give the measured log10 IC50 for CC(=O)O[C@H]1C[C@H]2[C@@H]([C@H](OC(C)=O)C[C@@H]3C[C@H](N(C)C)CC[C@@]32C)[C@@H]2CC[C@H]([C@H](C)CCCN(C)CCCNc3ccnc4cc(Cl)ccc34)[C@@]12C
result: 0.72

query: Respond only with log10 IC50 recorded for CC(=O)O[C@@H]1CC[C@@]2(C)[C@@H](C1)C[C@@H](OC(C)=O)[C@@H]1[C@@H]2C[C@H](OC(C)=O)[C@]2(C)[C@@H]([C@H](C)CCCNCCCCNc3ccnc4cc(Cl)ccc34)CC[C@@H]12
result: 0.41

query: Output measured log10 IC50 for this item: CC(=O)O[C@H]1C[C@H]2[C@@H]([C@H](OC(C)=O)C[C@@H]3C[C@H](N)CC[C@@]32C)[C@@H]2CC[C@H]([C@H](C)CCCNCCCNc3ccnc4cc(Cl)ccc34)[C@@]12C
result: 1.02

query: Output log10 IC50 of CC(=O)O[C@H]1C[C@H]2[C@@H]([C@H](OC(C)=O)C[C@@H]3C[C@H](N)CC[C@@]32C)[C@@H]2CC[C@H]([C@H](C)CCCN(CCCNc3ccnc4cc(Cl)ccc34)CCC[C@@H](C)[C@H]3CC[C@H]4[C@@H]5[C@H](OC(C)=O)C[C@@H]6C[C@H](N)CC[C@]6(C)[C@H]5C[C@H](OC(C)=O)[C@]34C)[C@@]12C
result: 0.33

query: Could you please provide reported log10 IC50 for CC(=O)O[C@H]1C[C@H]2[C@@H]([C@H](OC(C)=O)C[C@@H]3CC(=O)CC[C@@]32C)[C@@H]2CC[C@H]([C@H](C)CCCNCCCCNc3ccnc4cc(Cl)ccc34)[C@@]12C ? Thanks!
result: 0.09

query: Give reported log10 IC50 value for CC(=O)O[C@H]1C[C@H]2[C@@H]([C@H](OC(C)=O)C[C@@H]3C[C@H](O)CC[C@@]32C)[C@@H]2CC[C@H]([C@H](C)CCCNCCNc3ccnc4cc(Cl)ccc34)[C@@]12C
result: 0.44

query: State its log10 IC50 for this compound: CC(=O)O[C@H]1C[C@H]2[C@@H]([C@H](OC(C)=O)C[C@@H]3C[C@H](N)CC[C@@]32C)[C@@H]2CC[C@H]([C@H](C)CCCN(C)CCNc3ccnc4cc(Cl)ccc34)[C@@]12C
result: 1.16

====

Here, each record is paired with measured pIC50 data.
- target: Botulinum neurotoxin type A (Clostridium botulinum)
- Sequence (P0DPI0 2-448 limits assumed): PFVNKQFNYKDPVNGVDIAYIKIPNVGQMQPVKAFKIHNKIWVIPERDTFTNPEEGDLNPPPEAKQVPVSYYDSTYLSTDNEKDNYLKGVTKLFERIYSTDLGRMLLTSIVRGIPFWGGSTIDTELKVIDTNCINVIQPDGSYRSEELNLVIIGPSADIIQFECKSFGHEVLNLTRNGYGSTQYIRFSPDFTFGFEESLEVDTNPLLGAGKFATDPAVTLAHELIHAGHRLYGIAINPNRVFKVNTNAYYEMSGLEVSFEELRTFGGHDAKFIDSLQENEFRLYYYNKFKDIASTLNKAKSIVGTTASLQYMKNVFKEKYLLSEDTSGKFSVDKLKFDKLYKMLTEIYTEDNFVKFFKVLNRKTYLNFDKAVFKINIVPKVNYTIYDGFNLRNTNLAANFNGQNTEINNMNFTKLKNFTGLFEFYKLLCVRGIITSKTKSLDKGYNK
- experiment summary: Inhibition of Clostridium botulinum recombinant BoNT/A light chain using N-terminal acetylated, C-terminal aminated SNAP-25 (187-203) as substrate by reverse-phase HPLC analysis
// pIC50 here means minus log10 of the molar concentration (mol/L)

query: Identify measured pIC50 associated with CC(=O)O[C@H]1C[C@H]2[C@@H]([C@H](OC(C)=O)C[C@@H]3C[C@H](N(C)C)CC[C@@]32C)[C@@H]2CC[C@H]([C@H](C)CCCN(C)CCCNc3ccnc4cc(Cl)ccc34)[C@@]12C
result: 5.89

query: Quote pIC50 reported for CC(=O)O[C@H]1C[C@H]2[C@@H]([C@H](OC(C)=O)C[C@@H]3C[C@H](N(C)C)CC[C@@]32C)[C@@H]2CC[C@H]([C@H](C)CCCNCCNc3ccnc4cc(Cl)ccc34)[C@@]12C please.
result: 5.99

====

- Test system: Plasmodium falciparum
- experiment summary: Antimalarial activity against CQ-resistant, MFQ-susceptible Plasmodium falciparum W2 clone Indochina 1 isolate assessed as inhibition of parasite proliferation by MSF assay
- Format: functional, organism-based
pIC50: −log10 of the molar value.
Decide using pIC50: a value greater than or equal to 7 is condition met, a smaller one is condition not met.

{"line notation": "CC(=O)O[C@H]1C[C@H]2[C@@H]([C@H](OC(C)=O)C[C@@H]3CC(=O)CC[C@@]32C)[C@@H]2CC[C@H]([C@H](C)CCCNCCCCNc3ccnc4cc(Cl)ccc34)[C@@]12C", "answer label": "condition not met"}
{"line notation": "CC(=O)O[C@H]1C[C@H]2[C@@H]([C@H](OC(C)=O)C[C@@H]3C[C@H](N)CC[C@@]32C)[C@@H]2CC[C@H]([C@H](C)CCCN(C)CCNc3ccnc4cc(Cl)ccc34)[C@@]12C", "answer label": "condition met"}
{"line notation": "CC(=O)O[C@H]1C[C@H]2[C@@H]([C@H](OC(C)=O)C[C@@H]3C[C@H](N(C)C)CC[C@@]32C)[C@@H]2CC[C@H]([C@H](C)CCCN(C)CCCNc3ccnc4cc(Cl)ccc34)[C@@]12C", "answer label": "condition met"}
{"line notation": "CC(=O)O[C@H]1C[C@H]2[C@@H]([C@H](OC(C)=O)C[C@@H]3CC(=O)CC[C@@]32C)[C@@H]2CC[C@H]([C@H](C)CCCNCCCNc3ccnc4cc(Cl)ccc34)[C@@]12C", "answer label": "condition met"}

query: Is the recorded value of pIC50 equal to or greater than 7 for this compound? CC(=O)O[C@H]1C[C@H]2[C@@H]([C@H](OC(C)=O)C[C@@H]3CC(=O)CC[C@@]32C)[C@@H]2CC[C@H]([C@H](C)CCCNCCCCCCNc3ccnc4cc(Cl)ccc34)[C@@]12C
result: condition met

====

Form field: t1/2 (one value per entry).
- System: Liver
- experiment summary: Half life in mouse liver microsomes
- Assay type: ADME
- condition parameters: microsomes
Reply numerically in min, unit not repeated.

Completed entries (count: 4):
{"line notation": "CC(=O)O[C@H]1C[C@H]2[C@@H]([C@H](OC(C)=O)C[C@@H]3CC(=O)CC[C@@]32C)[C@@H]2CC[C@H]([C@H](C)CCCNCCNc3ccnc4cc(Cl)ccc34)[C@@]12C", "t1/2 (min)": 13}
{"line notation": "CC(=O)O[C@H]1C[C@H]2[C@@H]([C@H](OC(C)=O)C[C@@H]3C[C@H](NS(C)(=O)=O)CC[C@@]32C)[C@@H]2CC[C@H]([C@H](C)CCCNCCCNc3ccnc4cc(Cl)ccc34)[C@@]12C", "t1/2 (min)": 47}
{"line notation": "CC(=O)O[C@H]1C[C@H]2[C@@H]([C@H](OC(C)=O)C[C@@H]3C[C@H](O)CC[C@@]32C)[C@@H]2CC[C@H]([C@H](C)CCCNCCNc3ccnc4cc(Cl)ccc34)[C@@]12C", "t1/2 (min)": 30}
{"line notation": "CC(=O)O[C@H]1C[C@H]2[C@@H]([C@H](OC(C)=O)C[C@@H]3C[C@H](NS(C)(=O)=O)CC[C@@]32C)[C@@H]2CC[C@H]([C@H](C)CCCN(C)CCNc3ccnc4cc(Cl)ccc34)[C@@]12C", "t1/2 (min)": 47}

Moving on to the next compound.
query: Return t1/2 for the following compound: CC(=O)O[C@H]1C[C@H]2[C@@H]([C@H](OC(C)=O)C[C@@H]3CC(=O)CC[C@@]32C)[C@@H]2CC[C@H]([C@H](C)CCCNCCCNc3ccnc4cc(Cl)ccc34)[C@@]12C
result: 6
